Biological target: wild type HCV NS3/4A 1b protease enzyme (Hepatitis C virus genotype 1b, UniProt P26663)
Construct: 10× stocks of NS3/4A protease enzyme from Bioenza (Mountain View, Calif.); purchased Bioenza (Mountain View, Calif.)
Sequence (P26663 1658-1711): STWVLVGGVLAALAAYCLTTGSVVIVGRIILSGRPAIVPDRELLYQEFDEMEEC
Sequence (P26663 1027-1208): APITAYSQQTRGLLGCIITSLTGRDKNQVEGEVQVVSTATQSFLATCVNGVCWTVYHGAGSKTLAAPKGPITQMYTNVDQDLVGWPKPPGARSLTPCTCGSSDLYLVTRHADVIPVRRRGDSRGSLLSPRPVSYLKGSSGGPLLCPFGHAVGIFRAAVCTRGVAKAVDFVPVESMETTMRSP
Experiment: biochemical
Assay type: biochemical
Settings: read-out: Inhibition, WT; WT enzyme, FRET assay
pIC50: −log10 of the molar value.
Entries and their pIC50 values follow.
observable: pIC50

molecule	result
C=CC(=O)NCC(=O)N1C[C@H](Oc2cc(-c3ccccc3)nc3cc(OC)ccc23)C[C@H]1C(=O)N[C@]1(C(=O)NS(=O)(=O)c2ccccc2)C[C@H]1C=C	> 8.00
C=C[C@@H]1C[C@]1(NC(=O)[C@@H]1C[C@@H](Oc2cc(-c3ccccc3)nc3cc(OC)ccc23)CN1C(=O)[C@H](CNC(=O)C(Cl)c1ccccc1)NC(=O)OC(C)(C)C)C(=O)NS(=O)(=O)c1ccccc1 (stereo partly shown)	> 8.00
C=C[C@@H]1C[C@]1(NC(=O)[C@@H]1C[C@@H](Oc2cc(-c3ccccc3)nc3cc(OC)ccc23)CN1C(=O)[C@H](CCNC(=O)C(C)Cl)NC(=O)OC(C)(C)C)C(=O)NS(=O)(=O)c1ccccc1 (stereo partly shown)	> 8.00
C=CC(=O)NC[C@H](NC(=O)OC(C)(C)C)C(=O)N1C[C@H](Oc2cc(-c3ccccc3)nc3cc(OC)ccc23)C[C@H]1C(=O)N[C@]1(C(=O)NS(=O)(=O)C2CC2)C[C@H]1C=C	> 8.00
C=C[C@@H]1C[C@]1(NC(=O)[C@@H]1C[C@@H](Oc2cc(-c3ccccc3)nc3cc(OC)ccc23)CN1C(=O)CNC(=O)OC(C)(C)C)C(=O)NS(=O)(=O)C1CC1	> 8.00
C=C[C@@H]1C[C@]1(NC(=O)[C@@H]1C[C@@H](Oc2cc(-c3ccccc3)nc3cc(OC)ccc23)CN1C(=O)[C@H](Cn1sc2ccccc2c1=O)NC(=O)OC(C)(C)C)C(=O)NS(=O)(=O)c1ccccc1	> 8.00
C=C[C@@H]1C[C@]1(NC(=O)[C@@H]1C[C@@H](Oc2cc(-c3ccccc3)nc3cc(OC)ccc23)CN1C(=O)[C@H](CNC(=O)CCl)NC(=O)OC(C)(C)C)C(=O)NS(=O)(=O)c1ccccc1	> 8.00
C=C[C@@H]1C[C@]1(NC(=O)[C@@H]1C[C@@H](Oc2cc(-c3ccccc3)nc3cc(OC)ccc23)CN1C(=O)[C@H](CCNC(=O)CCl)NC(=O)OC(C)(C)C)C(=O)NS(=O)(=O)c1ccccc1	> 8.00
C=CC(=O)NC[C@H](NC(=O)OC(C)(C)C)C(=O)N1C[C@H](Oc2cc(-c3ccccc3)nc3cc(OC)ccc23)C[C@H]1C(=O)N[C@]1(C(=O)O)C[C@H]1C=C	7.00 to 8.00
C=C[C@@H]1C[C@]1(NC(=O)[C@@H]1C[C@@H](Oc2cc(-c3ccccc3)nc3cc(OC)ccc23)CN1C(=O)CNC(=O)C#CC)C(=O)NS(=O)(=O)c1ccccc1	6.00 to 7.00
